// data source = patent US11759455B2

Target: human GluN1/GluN2B NMDA receptors (Homo sapiens)
Construct: expressed in transfected cells
Assay: Cell-based calcium flux (FLIPR) assay on cloned human NR1/NR2B ion channels expressed in mammalian cells (standard and HTS buffer variants)
Conditions: standard assay buffer (0.5 mM MgCl2 in dye loading buffer; 137 mM NaCl, 4 mM KCl in assay buffer), human GluN1/GluN2B, read-out: NR2B IC50 (μM) standard assay
Measured log10 of IC50 values are reported for all entries that follow.
Friendly reminder: values = log10 of IC50, unit µM.

Task: Quick one: log10 of IC50 of CNC(=O)Cn1c(=O)[nH]c2ncc(-c3ccc(F)cc3OC)cc21 ?
Result: -0.45

Others:
Task: Quick one: log10 of IC50 of Cc1ccc(-c2cnc3c(c2)n(Cc2cnn(C)c2)c(=O)n3C)s1 ?
Result: 0.12

Task: Quick one: log10 of IC50 of CNC(=O)Cn1c(=O)[nH]c2ncc(-c3ccc(F)cc3C)cc21 ?
Result: -0.66

----------
Measured IC50 values are reported for all entries that follow.
Biological target: human GluN1/GluN2B NMDA receptors (Homo sapiens)
Construct: expressed in transfected cells
Test: Cell-based calcium flux (FLIPR) assay on cloned human NR1/NR2B ion channels expressed in mammalian cells (standard and HTS buffer variants)
Conditions: standard assay buffer (0.5 mM MgCl2 dye loading; 137 mM NaCl, 4 mM KCl assay buffer), human GluN1/GluN2B cells, read-out: NR2B IC50 (μM) standard assay
Express your answer in µM, writing the number without its unit.

Task: Quick one: IC50 of Cc1cc(-c2cnc3c(c2)n(Cc2cccnc2)c(=O)n3C)ccc1F ?
Result: 0.038

Task: Quick one: IC50 of O=c1[nH]c2ncc(-c3cccc(C(F)(F)F)c3)cc2n1CC1(F)COC1 ?
Result: 0.8

Task: Quick one: IC50 of Cc1c(F)ccc(-c2cnc3[nH]c(=O)n(Cc4ccccn4)c3c2)c1F ?
Result: 0.576

Others:
Task: Quick one: IC50 of CC(C)C(=O)Cn1c(=O)[nH]c2ncc(-c3cccc(C(F)(F)F)c3)cc21 ?
Result: 0.093

Task: Quick one: IC50 of Cn1c(=O)n(CC(=O)N2CCC2)c2cc(-c3csc(C(F)(F)F)c3)cnc21 ?
Result: 0.048

Task: Quick one: IC50 of Cc1c(F)ccc(-c2cnc3c(c2)n(Cc2ccncn2)c(=O)n3C)c1F ?
Result: 0.482

----------
Target: human GluN1/GluN2B NMDA receptors (Homo sapiens, UniProt Q13224)
Construct: expressed in transfected cells
Sequence (Q13224 27-1484, other chains not shown): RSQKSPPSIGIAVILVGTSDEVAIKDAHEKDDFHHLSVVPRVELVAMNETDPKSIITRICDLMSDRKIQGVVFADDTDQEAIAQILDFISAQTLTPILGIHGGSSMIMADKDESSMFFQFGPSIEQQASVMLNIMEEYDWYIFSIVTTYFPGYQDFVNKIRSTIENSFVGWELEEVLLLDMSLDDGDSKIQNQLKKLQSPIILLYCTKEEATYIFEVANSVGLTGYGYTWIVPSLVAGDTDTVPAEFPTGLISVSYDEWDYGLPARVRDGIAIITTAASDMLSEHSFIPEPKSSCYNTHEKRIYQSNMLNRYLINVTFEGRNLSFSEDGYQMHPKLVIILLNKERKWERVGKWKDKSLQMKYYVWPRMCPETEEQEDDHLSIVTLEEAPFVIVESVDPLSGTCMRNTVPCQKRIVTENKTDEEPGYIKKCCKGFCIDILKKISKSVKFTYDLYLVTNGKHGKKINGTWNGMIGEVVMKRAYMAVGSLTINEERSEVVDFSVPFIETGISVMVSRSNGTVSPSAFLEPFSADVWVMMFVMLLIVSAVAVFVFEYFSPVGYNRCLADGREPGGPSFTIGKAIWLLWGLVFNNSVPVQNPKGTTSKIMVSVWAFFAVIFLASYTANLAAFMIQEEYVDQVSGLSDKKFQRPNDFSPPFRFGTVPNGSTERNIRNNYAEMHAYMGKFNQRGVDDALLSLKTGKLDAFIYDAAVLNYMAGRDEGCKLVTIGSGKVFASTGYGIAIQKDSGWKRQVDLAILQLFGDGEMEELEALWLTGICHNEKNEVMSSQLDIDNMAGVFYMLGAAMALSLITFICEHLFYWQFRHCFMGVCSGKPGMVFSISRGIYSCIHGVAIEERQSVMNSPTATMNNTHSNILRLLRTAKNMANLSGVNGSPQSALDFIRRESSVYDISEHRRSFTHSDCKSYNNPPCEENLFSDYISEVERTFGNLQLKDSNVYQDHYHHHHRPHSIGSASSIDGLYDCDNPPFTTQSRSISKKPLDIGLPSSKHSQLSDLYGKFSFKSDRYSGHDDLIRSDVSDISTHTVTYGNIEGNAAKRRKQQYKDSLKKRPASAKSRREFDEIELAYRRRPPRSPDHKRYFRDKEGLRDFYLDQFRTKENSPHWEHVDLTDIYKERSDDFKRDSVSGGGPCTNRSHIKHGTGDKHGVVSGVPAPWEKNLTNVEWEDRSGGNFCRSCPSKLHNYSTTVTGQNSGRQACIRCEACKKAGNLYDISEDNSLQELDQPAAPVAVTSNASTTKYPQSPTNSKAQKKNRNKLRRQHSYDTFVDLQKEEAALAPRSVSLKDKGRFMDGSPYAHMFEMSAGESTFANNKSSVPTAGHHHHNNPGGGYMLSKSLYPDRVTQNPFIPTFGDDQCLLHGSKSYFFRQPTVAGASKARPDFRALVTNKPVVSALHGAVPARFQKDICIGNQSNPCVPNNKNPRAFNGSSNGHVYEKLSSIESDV
Test: Cell-based calcium flux (FLIPR) assay on cloned human NR1/NR2B ion channels expressed in mammalian cells (standard and HTS buffer variants)
Details: standard assay buffer (0.5 mM MgCl2 dye loading; 137 mM NaCl, 4 mM KCl assay buffer), human GluN1/GluN2B cells, read-out: NR2B IC50 (μM) standard assay
Measured IC50 values are reported for all entries that follow.
Express your answer in µM, writing the number without its unit.

Completed entries (count: 2):
Task: Missing value: IC50, human GluN1/GluN2B NMDA receptors (Homo sapiens, UniProt Q13224), entry Cn1c(=O)n(CC(=O)N2CC(F)C2)c2cc(-c3cnc(C(F)(F)F)s3)cnc21 . Fill in?
Result: 0.705

Task: Missing value: IC50, human GluN1/GluN2B NMDA receptors (Homo sapiens, UniProt Q13224), entry Cc1cccc(C)c1-c1cnc2[nH]c(=O)n(CCN3CCCC3)c2c1 . Fill in?
Result: 20.7

Others:
Task: Missing value: IC50, human GluN1/GluN2B NMDA receptors (Homo sapiens, UniProt Q13224), entry O=c1[nH]c2ncc(-c3cccc(C(F)(F)F)c3)cc2n1Cc1cncc(C(F)(F)F)c1 . Fill in?
Result: 1.03

Task: Missing value: IC50, human GluN1/GluN2B NMDA receptors (Homo sapiens, UniProt Q13224), entry Cc1cncc(Cn2c(=O)[nH]c3ncc(-c4cccc(Cl)c4)cc32)c1 . Fill in?
Result: 0.096

Task: Missing value: IC50, human GluN1/GluN2B NMDA receptors (Homo sapiens, UniProt Q13224), entry O=C(Cn1c(=O)[nH]c2ncc(-c3cccc(C(F)(F)F)c3)cc21)NC1CC(F)(F)C1 . Fill in?
Result: 0.007

Task: Missing value: IC50, human GluN1/GluN2B NMDA receptors (Homo sapiens, UniProt Q13224), entry O=C(Cn1c(=O)[nH]c2ncc(-c3cccc(C(F)(F)F)c3)cc21)NC1CCCC1 . Fill in?
Result: 0.523

Task: Missing value: IC50, human GluN1/GluN2B NMDA receptors (Homo sapiens, UniProt Q13224), entry O=C(Cn1c(=O)[nH]c2ncc(-c3cccc(C(F)(F)F)c3)cc21)N1CCCCC1 . Fill in?
Result: 0.163

Task: Missing value: IC50, human GluN1/GluN2B NMDA receptors (Homo sapiens, UniProt Q13224), entry Cc1cc(Cn2c(=O)[nH]c3ncc(-c4cccc(C(F)(F)F)c4)cc32)no1 . Fill in?
Result: 0.124

Task: Missing value: IC50, human GluN1/GluN2B NMDA receptors (Homo sapiens, UniProt Q13224), entry Cc1cc(-c2cnc3[nH]c(=O)n(Cc4cncc(F)c4)c3c2)ccc1F . Fill in?
Result: 0.019

Task: Missing value: IC50, human GluN1/GluN2B NMDA receptors (Homo sapiens, UniProt Q13224), entry Cn1c(=O)n(CC(=O)N2CC(F)C2)c2cc(-c3ccc(F)s3)cnc21 . Fill in?
Result: 0.033

Task: Missing value: IC50, human GluN1/GluN2B NMDA receptors (Homo sapiens, UniProt Q13224), entry O=c1[nH]c2ncc(-c3cccc(C(F)(F)F)c3)cc2n1CCN1CC(O)C1 . Fill in?
Result: 0.365

Task: Missing value: IC50, human GluN1/GluN2B NMDA receptors (Homo sapiens, UniProt Q13224), entry Cc1c(F)ccc(-c2cnc3c(c2)n(Cc2ncccn2)c(=O)n3C)c1F . Fill in?
Result: 0.81

Task: Missing value: IC50, human GluN1/GluN2B NMDA receptors (Homo sapiens, UniProt Q13224), entry Cc1cc(Cn2c(=O)n(C)c3ncc(-c4cccc(C(F)(F)F)c4)cc32)no1 . Fill in?
Result: 0.057

----------
Biological target: human GluN1/GluN2B NMDA receptors (Homo sapiens, UniProt Q05586+Q13224)
Construct: expressed in transfected cells
Sequence (Q13224 27-1484, other chains not shown): as above
Assay: Cell-based calcium flux (FLIPR) assay on cloned human NR1/NR2B ion channels expressed in mammalian cells (standard and HTS buffer variants)
Conditions: standard assay buffer (0.5 mM MgCl2 dye loading; 137 mM NaCl, 4 mM KCl assay buffer), human GluN1/GluN2B cells, read-out: NR2B IC50 (μM) standard assay
Outcome measure: IC50

Task: Quick one: IC50 of O=c1[nH]c2ncc(-c3cccc(C(F)(F)F)c3)cc2n1CC1CCN1 (racemic) ?
Result: 0.063 µM

----------
Target: human GluN1/GluN2B NMDA receptors (Homo sapiens)
Construct: expressed in transfected cells
Assay: Cell-based calcium flux (FLIPR) assay on cloned human NR1/NR2B ion channels expressed in mammalian cells (standard and HTS buffer variants)
Conditions: standard assay buffer (0.5 mM MgCl2 dye loading; 137 mM NaCl, 4 mM KCl assay buffer), human GluN1/GluN2B cells, read-out: NR2B IC50 (μM) standard assay
IC50 less than 0.1 µM is MET; IC50 greater than or equal to 0.1 µM is NOT MET.

Task: Strictly below 0.1 µM: is that where IC50 of Cc1ccncc1Cn1c(=O)[nH]c2ncc(-c3ccc(F)c(F)c3)cc21 [Example 275] sits?
Result: MET

Task: Strictly below 0.1 µM: is that where IC50 of Cc1ccccc1-c1cnc2[nH]c(=O)n(CCN3CCC3)c2c1 [Example 152] sits?
Result: NOT MET

Task: Strictly below 0.1 µM: is that where IC50 of CN(C)C(=O)Cn1c(=O)n(C)c2ncc(-c3ccc(C4CC4)s3)cc21 [Example 110] sits?
Result: MET

Others:
Task: Strictly below 0.1 µM: is that where IC50 of Cc1cc(F)ccc1-c1cnc2[nH]c(=O)n(CCN3CCC3)c2c1 [Example 151] sits?
Result: NOT MET

Task: Strictly below 0.1 µM: is that where IC50 of Cc1cc(C)cc(-c2cnc3[nH]c(=O)n(CCN4CC(F)C4)c3c2)c1 [Example 183] sits?
Result: NOT MET

Task: Strictly below 0.1 µM: is that where IC50 of Cc1csc(-c2cnc3c(c2)n(Cc2cc(C)on2)c(=O)n3C)c1 [Example 14] sits?
Result: MET

Task: Strictly below 0.1 µM: is that where IC50 of Cc1cc(Cn2c(=O)[nH]c3ncc(-c4ccccc4)cc32)no1 [Example 11] sits?
Result: MET

----------
Measured IC50 values are reported for all entries that follow.
Target: human GluN1/GluN2B NMDA receptors (Homo sapiens, UniProt Q13224)
Construct: expressed in transfected cells
Assay: Cell-based calcium flux (FLIPR) assay on cloned human NR1/NR2B ion channels expressed in mammalian cells (standard and HTS buffer variants);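 also: stable Tet-On inducible cell line, Ca2+ influx triggered by glutamate at about EC40 plus 10 µM glycine, fluorescent dye read-out over 5 min, normalized to control wells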
Details: standard assay buffer (0.5 mM MgCl2 dye loading; 137 mM NaCl, 4 mM KCl assay buffer), human GluN1/GluN2B cells, read-out: NR2B IC50 (μM) standard assay

Completed entries (count: 4):
Task: Quick one: IC50 of COc1ccc(Cn2c(=O)[nH]c3ncc(-c4cccc(C(F)(F)F)c4)cc32)nn1 [Example 252] ?
Result: > 10 µM

Task: Quick one: IC50 of O=c1[nH]c2ncc(-c3cc(F)cc(F)c3)cc2n1CCNCCO [Example 173] ?
Result: 4.26 µM

Task: Quick one: IC50 of CCc1ccc(-c2cnc3c(c2)n(CC(=O)N(C)C)c(=O)n3C)s1 [Example 79] ?
Result: 0.031 µM

Task: Quick one: IC50 of CN(C)C(=O)Cn1c(=O)n(C)c2ncc(-c3ccc(Cl)s3)cc21 [Example 9] ?
Result: 0.005 µM

Read the next record carefully.
Task: Quick one: IC50 of O=C(Cn1c(=O)[nH]c2ncc(-c3cccc(C(F)(F)F)c3)cc21)C1CCC1 [Example 262] ?
Result: 0.308 µM
